Origin of values: the supplement of paper PMC12783771

B1: library; a variant is named by its letters at X, in order (parent)
chain: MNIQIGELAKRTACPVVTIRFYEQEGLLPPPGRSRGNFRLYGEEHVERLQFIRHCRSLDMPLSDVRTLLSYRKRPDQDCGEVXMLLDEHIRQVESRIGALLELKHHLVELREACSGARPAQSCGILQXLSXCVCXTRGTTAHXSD

Variants of: B1
Assay: sfGFP reporter fluorescence (15 h) (µM FITC); higher = higher leak
Conditions: library round: Round 2; ligand: none
Rule: sfGFP reporter fluorescence of 0.07 or more gives True; anything lower gives False.

Some entries whose results are on file:
>  <MUTATION CODE>
TIDSP L107C

>  <DISCRETE LABEL>
True

$$$$
>  <MUTATION CODE>
NGSPA

>  <DISCRETE LABEL>
False

$$$$
>  <MUTATION CODE>
NGCDR K104R

>  <DISCRETE LABEL>
False

$$$$
>  <MUTATION CODE>
TGDDW L126I

>  <DISCRETE LABEL>
False

$$$$

Request: Could you verify whether the entry NGDAP P61N V108E shows sfGFP reporter fluorescence of no less than 0.07?
Response: True

Request: Could you verify whether the entry NGLAP P61T shows sfGFP reporter fluorescence of no less than 0.07?
Response: True

Request: Could you verify whether the entry TGDDP R111D E112H shows sfGFP reporter fluorescence of no less than 0.07?
Response: False

Request: Could you verify whether the entry TIDDP L107C E109H shows sfGFP reporter fluorescence of no less than 0.07?
Response: True

Request: Could you verify whether the entry NGADP M60L P61N D64K shows sfGFP reporter fluorescence of no less than 0.07?
Response: True

Request: Could you verify whether the entry NIEDP L107C shows sfGFP reporter fluorescence of no less than 0.07?
Response: True
